Reported solubility by item:
# Experimental Protocol: Aqueous solubility of compound
# Type: physicochemical
# Assay Context: water (aqueous)
The answer is to be given in µg/mL; state only the numeric part.

Answered examples (2):
# Smiles, Quantity Unit, solubility
measured = [
    ("CC(C)(C)c1cc2c(N/N=C/c3ccc4c(c3)CNC4)ncnc2s1", "µg/mL", 2.8),
    ("CC(C)(C)c1cc2c(N/N=C/c3ccc4c(c3)CCNC4)ncnc2s1", "µg/mL", 8.5),
]

Fill in: solubility of CNCc1ccc(/C=N/Nc2ncnc3sc(C(C)(C)C)cc23)cc1 is ___
783

What do we get for CN(C)Cc1cccc(/C=N/Nc2ncnc3sc(C(C)(C)C)cc23)n1 ?
44
